The reported measurements were obtained from patent US11814435B2.

TGT: T1, hBCMA (human BCMA) (Homo sapiens, UniProt Q02223)
T1 sequence (Q02223 1-184): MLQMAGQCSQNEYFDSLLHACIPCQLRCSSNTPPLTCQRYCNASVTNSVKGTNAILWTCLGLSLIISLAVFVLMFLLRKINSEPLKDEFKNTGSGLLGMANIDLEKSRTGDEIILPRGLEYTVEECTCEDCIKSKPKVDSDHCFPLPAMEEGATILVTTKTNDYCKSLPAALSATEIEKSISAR
EXPERIMENT_DESCRIPTION: Kinetics and affinity of hBCMA/human IgG interactions by SPR (Bio-Rad Proteon XPR36)
Assay type: binding
RUN_PARAMETERS: human BCMA, 37° C.
PROPERTY_LABEL: kd Human

{"columns": ["MOLECULE", "MEASURED_VALUE"],
 "data": [
  ["C01_Rd4_6 nM_C04: anti-BCMA antibody (antibody, V domains shown) VH: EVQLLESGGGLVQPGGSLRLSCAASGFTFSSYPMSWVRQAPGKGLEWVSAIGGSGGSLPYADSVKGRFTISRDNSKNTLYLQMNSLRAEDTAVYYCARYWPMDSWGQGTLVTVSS VL: EIVLTQSPGTLSLSPGERATLSCCSSQSVSSTYLAWYQQKPGQAPRLLIYDASSRAPGIPDRFSGSGSGTDFTLTISRLEPEDFAVYYCQQYSAFPLTFGQGTKVEIK", "0.0497 s⁻¹"]
]}
